pIC50: −log10 of the molar value.
This section lists pIC50 readings for AXL (Homo sapiens, UniProt P30530).
reported.endpoint: pIC50

1) COC[C@H](C)Nc1ncc2c(OC3CCOCC3)ncc(-c3ccc(O)cc3)c2n1	5.00 to 6.00
2) CCCC(C)Nc1ncc2c(O[C@H]3C[C@H](O)C3)ncc([C@H]3CC[C@H](O)CC3)c2n1 (stereo partly shown)	6.00 to 7.00
3) CC[C@@H](C)Nc1ncc2c(OC3CCN(C)CC3)ncc([C@H]3CC[C@H](O)CC3)c2n1	6.00 to 7.00
4) CCCC(C)Nc1ncc2c(N3CCC[C@H](N(C)C)C3)ncc([C@H]3CC[C@H](O)CC3)c2n1 (stereo partly shown)	5.00 to 6.00
5) CC[C@H](C)Nc1ncc2c(OC3CC(C)(C)NC(C)(C)C3)ncc([C@H]3CC[C@H](O)CC3)c2n1	6.00 to 7.00
6) COC[C@H](C)Nc1ncc2c(OC3C[C@@H](C)N(C)[C@H](C)C3)ncc([C@H]3CC[C@H](O)CC3)c2n1 (stereo partly shown)	6.00 to 7.00
7) CCCC(C)Nc1ncc2c(N(C)C3CCNCC3)ncc([C@H]3CC[C@H](O)CC3)c2n1 (stereo partly shown)	6.00 to 7.00
